Measurement record for UniProt:P29274; quantity recorded: pKi.
Sequence (P29274 whole entry): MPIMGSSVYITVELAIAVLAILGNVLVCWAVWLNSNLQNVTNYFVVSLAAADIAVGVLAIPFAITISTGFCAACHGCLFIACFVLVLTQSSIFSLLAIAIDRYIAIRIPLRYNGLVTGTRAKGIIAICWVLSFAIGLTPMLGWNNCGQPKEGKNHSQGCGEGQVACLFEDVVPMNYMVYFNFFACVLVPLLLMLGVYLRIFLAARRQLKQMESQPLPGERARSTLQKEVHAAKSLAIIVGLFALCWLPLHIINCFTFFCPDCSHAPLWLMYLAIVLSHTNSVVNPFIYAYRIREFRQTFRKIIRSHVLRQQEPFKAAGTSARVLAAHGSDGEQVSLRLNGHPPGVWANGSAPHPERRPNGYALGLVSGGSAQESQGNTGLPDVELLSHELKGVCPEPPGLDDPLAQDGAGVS
In simple prose, pKi is minus the logarithm base ten of a concentration in moles per litre.

Some entries whose results are on file:
INSERT INTO results (mol_smiles, assay_endpoint, recorded_number) VALUES
  ('COc1cc(CC(=O)Nc2cc(-n3nc(C)cc3C)nc(-c3ccc(C)o3)n2)cc(OC)c1', 'pKi', 8.70),
  ('Cc1cc(C)n(-c2cc(NC(=O)Cc3ccc(CN4CCOCC4)cc3)nc(-c3ccc(C)o3)n2)n1', 'pKi', 9.10),
  ('Cc1cc(C)n(-c2cc(NC(=O)Cc3ccc(N(C)C)cc3)nc(-c3ccc(C)o3)n2)n1', 'pKi', 8.70);

Per the records, this molecule ( `Cc1cc(C)n(-c2cc(NC(=O)Cc3ccc(CN(C)C)cc3)nc(-c3ccc(C)o3)n2)n1` ) has pKi equal to 9.70

Per the records, this molecule ( `COc1ccc(CC(=O)Nc2cc(-c3nccs3)nc(-c3ccc(C)o3)n2)cc1` ) has pKi equal to 8.22

Per the records, this molecule ( `COc1cc(CC(=O)Nc2cc(-n3nc(C)cc3C)nc(-c3ccccn3)n2)cc(OC)c1` ) has pKi equal to 9.00

----------
Species on record: Homo sapiens
assay: Selectivity for human adenosine A2A receptor over human adenosine A1 receptor
Quick list: Selectivity ratio per entry.
// print number alone

Some entries whose results are on file:
INSERT INTO assay_data (mol_smiles, recorded_number) VALUES
  ('COc1ccc(CC(=O)Nc2cc(-c3nccs3)nc(-c3ccc(C)o3)n2)cc1', 12),
  ('Cc1cc(C)n(-c2cc(NC(=O)Cc3ccc(S(C)(=O)=O)cc3)nc(-c3ccccn3)n2)n1', 148),
  ('CCOc1ccc(CC(=O)Nc2cc(-n3nc(C)cc3C)nc(-c3ccccn3)n2)cc1OC', 257),
  ('Cc1cc(C)n(-c2cc(NC(=O)Cc3ccc(N(C)C)cc3)nc(-c3ccc(C)o3)n2)n1', 162),
  ('COc1cc(CC(=O)Nc2cc(-n3nc(C)cc3C)nc(-c3ccccn3)n2)cc(OC)c1', 477),
  ('Cc1cc(C)n(-c2cc(NC(=O)Cc3ccc(F)c(F)c3)nc(-c3ccc(C)o3)n2)n1', 152);

Per the records, this compound ( `COc1ccc(CC(=O)Nc2cc(-n3cccn3)nc(-c3ccc(C)o3)n2)cc1` ) has Selectivity ratio equal to 12

Per the records, this compound ( `COc1ccc(CC(=O)Nc2cc(-n3nc(C)cc3C)nc(-c3ccc(C)o3)n2)cc1` ) has Selectivity ratio equal to 61

Per the records, this compound ( `Cc1cc(C)n(-c2cc(NC(=O)Cc3ccc(CN4CCOCC4)cc3)nc(-c3ccc(C)o3)n2)n1` ) has Selectivity ratio equal to 179

Per the records, this compound ( `Cc1cc(C)n(-c2cc(NC(=O)Cc3ccc(NS(C)(=O)=O)cc3)nc(-c3ccc(C)o3)n2)n1` ) has Selectivity ratio equal to 90

----------
Measurement record for UniProt:P29274; quantity recorded: Ki.
Value expressed in nM; do not type the unit.

Some entries whose results are on file:
INSERT INTO results (mol_smiles, assay_endpoint, units_of_measure, recorded_number) VALUES
  ('COc1ccc(CC(=O)Nc2cc(-n3nc(C)cc3C)nc(-c3ccccn3)n2)cc1', 'Ki', 'nM', 1),
  ('Cc1cc(C)n(-c2cc(NC(=O)Cc3ccc(NS(C)(=O)=O)cc3)nc(-c3ccc(C)o3)n2)n1', 'Ki', 'nM', 5),
  ('Cc1cc(C)n(-c2cc(NC(=O)Cc3ccc(S(C)(=O)=O)cc3)nc(-c3ccccn3)n2)n1', 'Ki', 'nM', 1),
  ('COc1ccc(CC(=O)Nc2cc(-c3nccs3)nc(-c3ccccn3)n2)cc1', 'Ki', 'nM', 1);

API: the following record is the query input.
Entry `CCOc1ccc(CC(=O)Nc2cc(-n3nc(C)cc3C)nc(-c3ccccn3)n2)cc1OC` , UniProt:P29274 data, Ki value: 1

Data origin, for the record: ChEMBL document CHEMBL1142297
